pIC50: −log10 of the molar value.
# literature pull: Renin (Homo sapiens) pIC50
parameter: pIC50

molecule=CC(C)C[C@H](O)[C@H](O)[C@H](CC1CCCCC1)NC(=O)[C@H](Cc1cscn1)NC(=O)[C@@H](CC(=O)N(C)CCn1ccnc1)Cc1ccccc1 parameter=pIC50 endpointresult=9.52
molecule="COC(=O)CN(C)C(=O)CC(Cc1cccc2ccccc12)C(=O)N[C@@H](Cc1c[nH]cn1)C(=O)N[C@@H](CC(C)C)C(O)C(=O)OC(C)C (mixture of isomers)" parameter=pIC50 endpointresult=7.77
molecule="CC(C)CC(CC(O)[C@H](CC1CCCCC1)NC(=O)OC(C)(C)C)C(=O)N[C@@H](CC(C)C)[C@@H](O)CC(=O)N[C@@H](CC(C)C)C(=O)NCc1ccccc1 (stereo partly drawn)" parameter=pIC50 endpointresult=5.42
molecule=CCN1C[C@@H]([C@H](O)[C@H](CC2CCCCC2)NC(=O)[C@H](Cc2c[nH]cn2)NC(=O)c2cc3ccccc3[nH]2)OC1=O parameter=pIC50 endpointresult=7.92
molecule="CC(C)CC(CC(=O)[C@H](CC1CCCCC1)NC(=O)OC(C)(C)C)C(=O)N[C@@H](CC(C)C)[C@@H](O)CC(=O)N[C@@H](CC(C)C)C(=O)NCc1ccccc1 (stereo partly drawn)" parameter=pIC50 endpointresult=4.59
molecule=CC(C)C[C@H](O)[C@H](O)[C@H](CC1CCCCC1)NC(=O)[C@H](CCC(=O)OCc1ccccc1)NC(=O)c1cc2ccccc2[nH]1 parameter=pIC50 endpointresult=6.89
molecule="O=C(N[C@@H](Cc1c[nH]cn1)C(=O)NCC(O)CO)c1[nH]c2ccccc2c1CCC=CC1CCCCC1 (stereo partly drawn)" parameter=pIC50 endpointresult=5.15
molecule="C#CC[C@H](NC(=O)C(Cc1ccccc1)OC(=O)N(C)CCN(C)C)C(=O)NC(CC1CCCCC1)[C@@H](O)C(O)CC(C)C (relative stereo)" parameter=pIC50 endpointresult=8.40
molecule=CC(C)C[C@H](O)[C@H](O)[C@H](CC1CCCCC1)NC(=O)[C@H](Cc1c[nH]cn1)NC(=O)c1cc2ccccc2o1 parameter=pIC50 endpointresult=8.00
molecule="CCCCNC(=O)[C@H](C[C@H](O)[C@H](CC1CCCCC1)NC(=O)C(Cc1cscn1)N1CCN(C(=O)N2CCOCC2)[C@H](Cc2ccccc2)C1=O)C(C)C (stereo partly drawn)" parameter=pIC50 endpointresult=8.89
molecule=CC(C)C[C@H](O)[C@H](O)[C@H](CC1CCCCC1)NC(=O)[C@H](Cn1ccnc1)NC(=O)[C@@H](CC(=O)N(C)CCc1ccccn1)Cc1ccccc1 parameter=pIC50 endpointresult=9.06
molecule=CC(C)C[C@H](O)[C@H](O)[C@H](CC1CCCCC1)NC(=O)[C@H](C)CNC(=O)c1cc2cccc(Cl)c2o1 parameter=pIC50 endpointresult=5.74
